# Tested on: Pseudomonas aeruginosa
# experiment: % Kill of Pseudomonas aeruginosa
# Type: cell-based
# run_conditions: 5 min, 0.34 ppm free bromine, 5 min, read-out: Percent Kill Pseudomonas aeruginosa
Reported killing at 0.34 µg/mL values are given for each entry in this list.
quantity: killing at 0.34 µg/mL (%)

1. CCC[N+](C)(C)CC
100
2. CCCCCCCCN(C)C
100
3. COCCOCC[N+](C)(CCOCCOC)CCOCCOC
100
4. CCCCCCCCCCCCCC[N+](C)(C)Cc1ccccc1
100
5. CC[N+](C)(C)C
100
6. CCOCC[N+](C)(C)C
99.9

====

# Tested on: Pseudomonas aeruginosa
# experiment: % Kill of Pseudomonas aeruginosa
# Type: cell-based
# run_conditions: 1 min, 0.34 ppm free bromine, 1 min, read-out: Percent Kill Pseudomonas aeruginosa
Reported killing at 0.34 µg/mL values are given for each entry in this list.
quantity: killing at 0.34 µg/mL (%)

1. CC[N+](C)(C)C [Compound 5]
99.9
2. CCCCCCCCN(C)C [Compound 4]
99.9
3. COCCOCC[N+](C)(CCOCCOC)CCOCCOC [Compound 3]
98.6
4. CCOCC[N+](C)(C)C [Compound 12]
100
5. CCCCCCCCCCCCCC[N+](C)(C)Cc1ccccc1 [Compound 11]
100
6. CCC[N+](C)(C)CC [Compound 6]
99.6

# credit: patent US4976874A
